experiment: Intrinsic clearance in rat liver microsomes; type: ADME; conditions: read-out: CLH
quantity-measured: microsomal CLint (µL/min/mg)
Use µL/min/mg as the unit, but write only the number.

Query :: Can you share its microsomal CLint? I mean this compound: CC1(C)OC(=O)N(c2ccc(-c3cnc(N)c(-c4ncccn4)c3)cc2)[C@H]1c1ccccc1
Result :: 48

* * *

experiment: Oral bioavailability in Sprague-Dawley rat at 2 mg/kg; assay type: ADME, organism-based; conditions: in vivo
As shown below, each of these compounds has a reported bioavailability value.
# number then unit; no other words

CC1(C)OC(=O)N(c2ccc(-c3cnc(N)c(-c4ncccn4)c3)cc2)[C@H]1c1ccccc1    29%

Below: the item to evaluate.
Query :: Which measured bioavailability value corresponds to CC1(C)OC(=O)N([C@H]2CC[C@H](c3cnc(N)c(-c4ncccn4)c3)CC2)[C@H]1c1ccccc1 ?
Result :: 33%
